Data origin: PubChem BioAssay (EPA / NIEHS)

- Read-out: Glutamate-cysteine ligase regulatory (GCLM), GCLM (gene 2730)
- protocol-text: LTEA_HepaRG_GCLM: Life Technologies and Expression Analysis (LTEA) Assay for Glutamate-cysteine ligase regulatory (GCLM) using HepaRG (AID 2283500)
- experimental-conditions: mRNA level, 48 h; actives raise or lower the signal
- Description: LTEA_HepaRG is a cell based, multiplexed-readout assay that uses HepaRG, a human liver cell line, with measurements taken at 48 hours after chemical dosing on a 96-well plate.LTEA_HepaRG_GCLM is one of 102 assay component(s) measured in the LTEA HepaRG cell culture assay. It is a marker of Cell proliferation, survival, death.Data from the assay component LTEA_HepaRG_GCLM was analyzed into 1 endpoint. […]
Active and inactive are the calls of the source. Rule for the calls: active = hit-call score of the fitted dose curve at least 0.9, where 1 is the maximum; inactive = score below 0.9.
In this exercise, the only acceptable responses are Y (active), N (inactive)

>>> group_label("O=C(O)COc1ccc(Cl)cc1Cl")
"N"
>>> group_label("CCC(C)(C)C(=O)OC1=C(c2ccc(Cl)cc2Cl)C(=O)OC12CCCCC2")
"N"
>>> group_label("CNC(=O)CSP(=S)(OC)OC")
"N"

Ask: Could you kindly confirm the outcome this assay logged for CCOC1Oc2ccc(OS(C)(=O)=O)cc2C1(C)C (stereo unspecified) ?
Reply: Y

Ask: Could you kindly confirm the outcome this assay logged for CCC(C)Nc1c([N+](=O)[O-])cc(C(C)(C)C)cc1[N+](=O)[O-] (stereo unspecified) ?
Reply: N

Ask: Could you kindly confirm the outcome this assay logged for C[C@H]1[C@H](c2ccc(Cl)cc2)SC(=O)N1C(=O)NC1CCCCC1 ?
Reply: Y
